Every entry's value here was drawn from paper PMC8443706.

tgt: T1, IIB-Fc:ALK4-Fc heterodimer (human ActRIIB ECD-Fc paired with human ALK4 ECD-Fc) (human, UniProt Q13705-1 19-134; P36896-1 24-126)
T1 construct: activin receptor type IIB (ActRIIB) extracellular domain, human, aa 19-134 of NP_001097.2; copies: 1 + 1
assay-comment: SPR; Biacore 8K, 37 °C; Fc-fusion receptor dimers captured by anti-human Fc antibody on a CM5 chip (100-150 RU); ligands injected in two-fold dilution series (300 s association, 600 s dissociation); HBS-EP+ supplemented with 350 mM NaCl and 0.5 mg/mL BSA; 1:1 Langmuir model with a term for mass transport
applied-conditions: both partners purified
observed-property: kon (M⁻¹ s⁻¹)

For orientation, consider the following solved cases.
GET /value?item= activin A (ligand, human, UniProt P08476 311-426, looked up, source: generated in house) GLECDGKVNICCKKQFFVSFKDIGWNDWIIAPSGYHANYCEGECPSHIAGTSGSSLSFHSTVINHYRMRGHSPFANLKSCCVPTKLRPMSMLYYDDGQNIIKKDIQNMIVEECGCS &field=kon returns 7.4e+06

Looking up activin B (ligand, human, UniProt P09529 293-407, looked up, source: generated in house) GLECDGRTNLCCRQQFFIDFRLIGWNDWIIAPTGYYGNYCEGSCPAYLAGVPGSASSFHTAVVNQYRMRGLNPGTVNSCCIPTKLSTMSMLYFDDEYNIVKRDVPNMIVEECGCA , I see its kon listed as 5.3e+06

// sample BMP6 (ligand, human, UniProt P22004 375-513, looked up, source: bought: R&D Systems) SASSRRRQQSRNRSTQSQDVARVSSASDYNSSELKTACRKHELYVSFQDLGWQDWIIAPKGYAANYCDGECSFPLNAHMNATNHAIVQTLVHLMNPEYVPKPCCAPTKLNAISVLYFDDNSNVILKKYRNMVVRACGCH , its kon was 7.6e+06

A. BMP10 (ligand, human, UniProt O95393 317-424, looked up, source: bought: R&D Systems) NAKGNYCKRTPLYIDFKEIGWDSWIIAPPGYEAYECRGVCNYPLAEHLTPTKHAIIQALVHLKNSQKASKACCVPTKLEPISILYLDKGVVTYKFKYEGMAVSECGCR
B. GDF11 (ligand, human, UniProt O95390 299-407, looked up, source: generated in house) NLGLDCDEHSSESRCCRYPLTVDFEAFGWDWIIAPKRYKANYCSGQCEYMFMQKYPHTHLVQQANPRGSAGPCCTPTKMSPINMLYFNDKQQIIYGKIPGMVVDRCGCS
Q) // which entry has the larger kon value, A or B ? Give the label of your selection.
A) A
